tested on: HCT-116; experiment: NCI tumour cell line growth inhibition, 48 h
Active and inactive are the calls of the source. No stated cut-off is given here; in the data, active = GI50 up to about 1.1 µM and inactive = higher.
measurement_name: GI50

Completed entries (count: 4):
compound | GI50
CCOC(=O)c1sc2nc(SC)nc3c2c1NCN3c1ccc2c(c1)OCCCO2 | 5.02 µM (inactive)
C(=N\c1ccc(-c2nc3ccccc3s2)cc1)/c1cccs1 | 52.1 µM (inactive)
COc1ccc(N2C(=O)C3c4[nH]c5ccc(C)cc5c4C4CCC(c5ccccc5)CC4C3C2=O)cc1 (stereo not given) | > 57.7 µM (inactive)
CS/C(=N/S(=O)(=O)c1ccc(Cl)cc1)NCCCN/C(=N\S(=O)(=O)c1ccc(Cl)cc1)SC | 21.6 µM (inactive)

Next up:
[Q] Fill in: GI50 of CN(C)CCNC(=O)c1cccc2ccc(-c3ccc(F)cc3)nc12 is ___
[A] 3.03 µM (inactive)
